B1: library; numbered along this chain (parent)
chain: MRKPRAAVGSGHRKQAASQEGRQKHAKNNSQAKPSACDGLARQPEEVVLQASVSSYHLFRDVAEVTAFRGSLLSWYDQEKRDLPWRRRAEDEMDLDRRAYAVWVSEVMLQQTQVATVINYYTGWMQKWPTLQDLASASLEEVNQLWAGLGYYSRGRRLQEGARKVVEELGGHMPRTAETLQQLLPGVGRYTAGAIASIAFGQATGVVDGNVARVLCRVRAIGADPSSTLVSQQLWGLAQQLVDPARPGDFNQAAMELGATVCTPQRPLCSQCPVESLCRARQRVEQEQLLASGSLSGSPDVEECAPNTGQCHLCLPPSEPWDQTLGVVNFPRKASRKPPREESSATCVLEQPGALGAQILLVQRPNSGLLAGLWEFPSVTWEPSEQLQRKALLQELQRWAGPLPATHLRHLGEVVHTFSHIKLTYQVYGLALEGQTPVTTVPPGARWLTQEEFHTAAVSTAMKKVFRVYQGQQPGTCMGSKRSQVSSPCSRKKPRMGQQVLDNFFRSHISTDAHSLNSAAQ

# Variants of: B1
# PROTOCOL: 8OG:A repair function score (normalized; synonymous = 0, nonsense = -1) (normalized log-likelihood score); higher = more repair activity (WT-like);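 note: cells sorted at 72 h after reporter transfection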
# MEASUREMENT CONTEXT: with 8OG:A DNA repair reporter (GFP) in HEK-293 MUTYH KO cells
Rule: 8OG:A repair function score of -0.1 or more gives Y; anything lower gives N.

{"MUTATION ANNOTATION": "R219V", "CATEGORY": "N"}
{"MUTATION ANNOTATION": "L237P", "CATEGORY": "N"}
{"MUTATION ANNOTATION": "G429V", "CATEGORY": "Y"}
{"MUTATION ANNOTATION": "T380R", "CATEGORY": "Y"}
{"MUTATION ANNOTATION": "E341I", "CATEGORY": "Y"}
{"MUTATION ANNOTATION": "Q426F", "CATEGORY": "N"}
{"MUTATION ANNOTATION": "Q388S", "CATEGORY": "N"}
{"MUTATION ANNOTATION": "I421P", "CATEGORY": "N"}
{"MUTATION ANNOTATION": "S296K", "CATEGORY": "Y"}
{"MUTATION ANNOTATION": "R88A", "CATEGORY": "Y"}
{"MUTATION ANNOTATION": "R156T", "CATEGORY": "N"}
{"MUTATION ANNOTATION": "R156I", "CATEGORY": "N"}
{"MUTATION ANNOTATION": "A305V", "CATEGORY": "Y"}
{"MUTATION ANNOTATION": "P494N", "CATEGORY": "Y"}
{"MUTATION ANNOTATION": "A135G", "CATEGORY": "Y"}
{"MUTATION ANNOTATION": "M108N", "CATEGORY": "N"}
{"MUTATION ANNOTATION": "L501G", "CATEGORY": "Y"}
{"MUTATION ANNOTATION": "P404R", "CATEGORY": "Y"}
{"MUTATION ANNOTATION": "G150W", "CATEGORY": "N"}
{"MUTATION ANNOTATION": "S490R", "CATEGORY": "Y"}
{"MUTATION ANNOTATION": "R336W", "CATEGORY": "Y"}
{"MUTATION ANNOTATION": "G412C", "CATEGORY": "N"}
{"MUTATION ANNOTATION": "V207Q", "CATEGORY": "N"}
{"MUTATION ANNOTATION": "G368I", "CATEGORY": "N"}
{"MUTATION ANNOTATION": "I195D", "CATEGORY": "N"}
{"MUTATION ANNOTATION": "T263K", "CATEGORY": "Y"}
{"MUTATION ANNOTATION": "E160C", "CATEGORY": "Y"}
{"MUTATION ANNOTATION": "P317L", "CATEGORY": "Y"}
{"MUTATION ANNOTATION": "R88V", "CATEGORY": "Y"}
{"MUTATION ANNOTATION": "R266K", "CATEGORY": "Y"}
{"MUTATION ANNOTATION": "P299Y", "CATEGORY": "Y"}
{"MUTATION ANNOTATION": "L325S", "CATEGORY": "N"}
{"MUTATION ANNOTATION": "E141H", "CATEGORY": "Y"}
{"MUTATION ANNOTATION": "T380E", "CATEGORY": "Y"}
{"MUTATION ANNOTATION": "L396I", "CATEGORY": "N"}
{"MUTATION ANNOTATION": "A51P", "CATEGORY": "Y"}
{"MUTATION ANNOTATION": "Y425N", "CATEGORY": "N"}
{"MUTATION ANNOTATION": "P488F", "CATEGORY": "Y"}
{"MUTATION ANNOTATION": "A36R", "CATEGORY": "N"}
{"MUTATION ANNOTATION": "P437F", "CATEGORY": "N"}
{"MUTATION ANNOTATION": "L257T", "CATEGORY": "N"}
{"MUTATION ANNOTATION": "P306F", "CATEGORY": "Y"}
{"MUTATION ANNOTATION": "W447S", "CATEGORY": "N"}
{"MUTATION ANNOTATION": "G353Q", "CATEGORY": "N"}
{"MUTATION ANNOTATION": "E92S", "CATEGORY": "Y"}
{"MUTATION ANNOTATION": "L360R", "CATEGORY": "N"}

Just for reference, the supplement of paper PMC11908140 is where these values come from.
